tested on: A549 NSCLC; assay: NCI tumour cell line growth inhibition, 48 h; in the data active means GI50 below about 0.43 µM; inactive means the rest
Outcomes you can answer with include only these: Yes = active, No = inactive

compound=CS(=O)(=O)Nc1ccc(Nc2c3ccccc3nc3cc(N)ccc23)cc1 system_under_test="A549 NSCLC" assigned_class=Yes

Q: Field: outcome | Entry: COc1ccc2c(c1)OCC1c3cc(O)ccc3OC21 (stereo not drawn)
Result: No

Q: Field: outcome | Entry: CCCN1C(=O)/C(=C/c2cccc(O)c2)SC1=Nc1ccccc1
Result: No

* * *

Assignment: determine reported TGI for the given molecules.
test system: SN12C renal; experiment: NCI tumour cell line growth inhibition, 48 h

Some solved cases for reference:
molecule=COc1ccc2cc(C(=O)Nc3ccc(O)c(C(=O)O)c3)ccc2c1OC measured_parameter=TGI recorded_result="> 100 µM"
molecule="CCCCCC(/C=C/C1CCC(=O)C1)OCOCCOC (configuration not stated)" measured_parameter=TGI recorded_result="> 100 µM"
molecule=CCCCCCCc1c(Cl)nc(Cl)nc1Cl measured_parameter=TGI recorded_result="4.65 µM"
molecule=C=CS(=O)(=O)c1c2cc(OC)ccc2nc2ccc(OC)cc12 measured_parameter=TGI recorded_result="8.21 µM"
molecule=CN(CC(=O)O)S(=O)(=O)c1ccc(F)cc1 measured_parameter=TGI recorded_result="> 100 µM"

Hi, could you look up TGI for each item in my list?
1. CCOc1ccc2nc(S/C(=C/C=C(C#N)C#N)c3ccc(Cl)cc3)sc2c1
2. CCCc1cc2c(cc1O)CC[C@@H]1[C@@H]2CC[C@]2(C)[C@@H](O)CC[C@@H]12
3. CCCN1C(=O)/C(=C/c2cccc(O)c2)SC1=Nc1ccccc1
4. COc1ccc(-c2nc3ccccc3c(=O)[nH]2)c(OC)c1
5. COc1cc(/C=C/c2ccc(/C=C/c3cc(OC)c(OC)c(OC)c3)cc2)cc(OC)c1OC
6. COC(=O)[C@@]12CCCC(=O)[C@@H]1[C@H]1CCC[C@H]12

Result:
["8.18 µM", "24.7 µM", "29.1 µM", "> 100 µM", "> 100 µM", "> 100 µM"]

Hi, could you look up TGI for each item in my list?
1. O=c1c2c3c(sc2nc(CN2CCNCC2)n1-c1ccccc1)CCCC3
2. CCOC(=O)C1C(=O)CC(O)(c2ccccc2)C(C(=O)OCC)C1c1ccc(N(C)C)cc1 (configuration not stated)
3. Oc1c(C(O)c2ccccn2)ccc2ccccc12 (configuration not stated)
4. CC(NNC(=S)N1CCCCCC1)c1cccnn1 (configuration not stated)
5. C=C(CN(C)C)C(=O)c1ccc(OC2OC(COC(C)=O)C(OC(C)=O)C(OC(C)=O)C2OC(C)=O)cc1 (configuration not stated)

Result:
1. > 100 µM
2. > 100 µM
3. > 100 µM
4. > 100 µM
5. 26.2 µM

Hi, could you look up TGI for each item in my list?
1. O=C1c2ccccc2C2=Cc3ccccc3C(O)N12 (configuration not stated)
2. O=C(CSc1nccc(=O)[nH]1)c1ccccc1
3. O=C1CC[C@@]2(O)[C@H]3Cc4ccc(-c5cccc(O)c5)c5c4[C@@]2(CCN3CC2CC2)[C@H]1O5
4. N#CC(/C(=N/N=C(N)N)C(=O)Nc1ccccc1[N+](=O)[O-])c1nc(-c2ccc([N+](=O)[O-])cc2)cs1 (configuration not stated)
5. NC(=O)NC(=O)c1cccc(NC(=O)CI)c1

Result:
["> 100 µM", "> 100 µM", "> 83.3 µM", "> 100 µM", "0.326 µM"]

Q: TGI lookup needed for Cc1ccc(NCCN2CCCCC2)c2c(=O)c3ccccc3sc12 , thanks.
Result: 17.6 µM
